Origin of values: PubChem BioAssay AID2013

# MEASURED TARGET: G-protein coupled receptor 55 (Homo sapiens)
# PROCEDURE DETAILS: GPR55 antagonists blocking LPI-driven arrestin recruitment, primary screen, imaging, U2OS, beta-arrestin-GFP, LPI agonist (AID 2013);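 further: U2OS cells stably carrying GPR55 and arrestin-GFP stimulated by 5 µM LPI near EC80; imaged beta-arrestin-GFP aggregate spots per cell after agonist stimulation; plate controls were LPI-stimulated DMSO wells for no effect and DMSO wells without LPI for full effect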
# PARTICULARS: U2OS GPR55 beta-arrestin-GFP translocation imaging, LPI antagonism; at 10 µM; active compounds read high
The campaign covered roughly 290,000 compounds. About 370 (0.13%) were called active. This is one part of a sample in which actives are shown more often than they occur. Potency and affinity values are given separately.
Reported inhibition values for the following compounds.
PROPERTY NAME: inhibition (%)

>>> number("COc1ccccc1NC(=O)CN1CCN(C2c3ccccc3-c3ccccc32)CC1")
59.8
>>> number("C=C(c1ccc(OC)cc1)c1ccc(OC)cc1")
-8
>>> number("Cc1ccccc1NC(=O)CSC(N)=O")
1.9
>>> number("S=c1[nH]nc(CSCc2ccccc2Cl)n1-c1ccccc1")
1

---

Reported inhibition values for the following compounds.
# MEASURED TARGET: G-protein coupled receptor 55 (Homo sapiens) (UniProt Q9Y2T6)
# Sequence (Q9Y2T6 whole entry, looked up): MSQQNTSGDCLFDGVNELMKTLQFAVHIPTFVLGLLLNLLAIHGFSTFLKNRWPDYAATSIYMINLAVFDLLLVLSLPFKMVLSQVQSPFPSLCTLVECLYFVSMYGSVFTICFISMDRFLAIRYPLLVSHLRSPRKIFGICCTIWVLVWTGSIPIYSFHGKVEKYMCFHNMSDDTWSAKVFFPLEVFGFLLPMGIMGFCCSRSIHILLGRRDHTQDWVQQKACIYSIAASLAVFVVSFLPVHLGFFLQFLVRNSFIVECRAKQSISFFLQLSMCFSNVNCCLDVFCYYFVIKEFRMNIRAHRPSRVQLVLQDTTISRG
# PROCEDURE DETAILS: GPR55 antagonists blocking LPI-driven arrestin recruitment, primary screen, imaging, U2OS, beta-arrestin-GFP, LPI agonist (AID 2013);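 further: U2OS cells stably carrying GPR55 and arrestin-GFP stimulated by 5 µM LPI near EC80; imaged beta-arrestin-GFP aggregate spots per cell after agonist stimulation; plate controls were LPI-stimulated DMSO wells for no effect and DMSO wells without LPI for full effect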
# PARTICULARS: U2OS GPR55 beta-arrestin-GFP translocation imaging, LPI antagonism; at 10 µM; active compounds read high
Among all 290,000 compounds or so, about 370 (0.13%) were called active. The entries come from a sample that favours actives as a whole. Measured potencies and affinities stand elsewhere.
PROPERTY NAME: inhibition (%)

>>> number("COc1ccc2c(c1)NC(c1cc(Cl)cc(Cl)c1O)c1cccn1-2 (centres undefined)")
3.9
>>> number("COc1ccc(C2=NN(c3ccccc3)C(=O)/C2=C\\c2ccc(O)c(OC)c2)cc1")
-6.3
>>> number("NC(=O)[C@@H]1CCOc2c(F)cc([N+](=O)[O-])cc2C(=O)N[C@@H](CO)C(=O)NCC(=O)N1")
1.8
>>> number("COc1ccc(C(C(=O)NCCC(C)C)N(CCCO)C(=O)c2snc(C(N)=O)c2N)cc1OC (centres undefined)")
5
>>> number("O=C(/C=C/c1ccco1)NC(=S)Nc1ccccc1N1CCCC1")
23
>>> number("COc1ccc(C(=O)NC(C)Cc2cnccn2)cc1OC1CCN(C(C)C)CC1 (centres undefined)")
18.7
>>> number("COc1ccc(C2Nc3cc(OC)ccc3-n3cccc32)cc1 (centres undefined)")
8.6
>>> number("O=C(NCCN1CCNC1=O)C1CCC(=O)N(Cc2cccc(C(F)(F)F)c2)C1 (centres undefined)")
-10.6
>>> number("COc1ccc2c(c1)NC(c1ccc(N(C)C)cc1)c1cccn1-2 (centres undefined)")
67
>>> number("O=[N+]([O-])c1ccc(N/N=C\\c2cccn2-c2ccccc2)nc1")
89.6
>>> number("O=[N+]([O-])c1ccc(N/N=C2\\CC3CC=CC23)cc1 (centres undefined)")
-7.7
>>> number("Cc1ccc(NC(=O)c2cc(S(=O)(=O)N3CCc4ccccc43)cn2C)cc1")
6.1
>>> number("CCc1ccc2oc(C(=O)NC3CCS(=O)(=O)C3)cc(=O)c2c1 (centres undefined)")
0.2
>>> number("c1ccc(CN2CCC(Nc3nc(-c4cccs4)nc4ccccc34)CC2)cc1")
84.6
>>> number("O=C1N=C(N2CCOCC2)S/C1=C\\c1ccc(-c2ccccc2Cl)o1")
-0.9
>>> number("CC1(c2ccc([N+](=O)[O-])cc2)CC(C)(C)N(C(=O)c2ccccc2)c2ccccc21 (centres undefined)")
11.2
>>> number("O=C(NCc1ccc2c(c1)OCO2)Nc1ccc(Cl)cc1")
-2.2
>>> number("COc1ccc(C)cc1Nc1n[n+](-c2ccccc2)c(-c2ccc(C(=O)O)cc2)s1")
4.6
>>> number("CCCCNC(=O)N1c2ccccc2CC1C (centres undefined)")
7.4
